Below are IC50 measurements against Heat shock protein HSP 90-alpha (Homo sapiens, UniProt P07900) drawn from the literature.

Worked examples follow.
>  <compound>
COc1ccc(CNC(=O)c2ccc(N3[C@@H]4CC[C@H]3C[C@@H](NC(=O)c3cccc(OC)c3C)C4)nc2)c(F)c1

>  <readout name>
IC50

>  <endpoint result>
< 0.5 µM

$$$$
>  <compound>
CCN1CCC[C@H](NC(=O)c2ccc(N3C4CCC3CC(NC(=O)c3cc(C)c(C(N)=O)cc3C)C4)nc2)C1 (stereo partly shown)

>  <readout name>
IC50

>  <endpoint result>
0.5 to 0.999 µM

$$$$
>  <compound>
CC[C@H](C)Nc1cc(C(=O)NC2CC3CCC(C2)N3c2ccc(C(=O)C3CC3)cn2)ccc1C(N)=O (stereo partly shown)

>  <readout name>
IC50

>  <endpoint result>
< 0.5 µM

$$$$

Query: Can you look up IC50 on Heat shock protein HSP 90-alpha (Homo sapiens, UniProt P07900) for CC(=O)c1ccc(N2[C@@H]3CC[C@H]2C[C@@H](NC(=O)c2ccc(C(N)=O)c(NCCC(F)(F)F)c2)C3)nc1 ?
Result: < 0.5 µM

Query: Given the entry CCNC(=O)c1noc(-c2cc(C(C)C)c(O)cc2O)c1-c1ccc(CNCCCCCC(=O)NO)cc1 , what IC50 was observed with Heat shock protein HSP 90-alpha (Homo sapiens, UniProt P07900)?
Result: ≤ 0.1 µM

Query: What measured IC50 is associated with Cc1cc(C(N)=O)c(NC2CCCC2)cc1C(=O)N[C@H]1C[C@H]2CC[C@@H](C1)N2c1ccc(C(=O)C2CC2)cn1 on Heat shock protein HSP 90-alpha (Homo sapiens, UniProt P07900)?
Result: < 0.5 µM

Query: Fill in the recorded IC50 for this compound, with Heat shock protein HSP 90-alpha (Homo sapiens, UniProt P07900) as test system: CCNC(=O)c1noc(-c2cc(C(C)C)c(O)cc2O)c1-c1ccc(CN(C)CCC(=O)NO)cc1
Result: ≤ 0.1 µM

Query: Query the reported IC50 for Heat shock protein HSP 90-alpha (Homo sapiens, UniProt P07900); item: CCC[C@@H]1C(=O)Nc2cnc(N)nc2N1Cc1ncc(C)c(OC)c1C
Result: 1.8 µM

Query: Look up IC50 with Heat shock protein HSP 90-alpha (Homo sapiens, UniProt P07900) for this compound: CNc1cccc(C(=O)NC2CC3CCC(C2)N3c2ccc(C(=O)N[C@@H](C)c3ccc(N4CCN(C)CC4)cc3)cn2)c1C (stereo partly shown)
Result: < 0.5 µM

Query: Can you look up IC50 on Heat shock protein HSP 90-alpha (Homo sapiens, UniProt P07900) for NC(=O)c1cc(Br)c(C(=O)N[C@H]2C[C@H]3CC[C@@H](C2)N3c2ccc(C(=O)C3CC3)cn2)cc1NC1CCCC1 ?
Result: < 0.5 µM

Query: Heat shock protein HSP 90-alpha (Homo sapiens, UniProt P07900) / IC50 / C[C@H](NC(=O)c1ccc(N2C3CCC2CC(NC(=O)c2ccc(C(N)=O)c(Nc4ccncc4)c2)C3)nc1)c1ccc(N2CCN(C)CC2)cc1 (stereo partly shown) : value?
Result: < 0.5 µM

Query: Recorded IC50 for NC(=O)c1ccc(C(=O)N[C@H]2C[C@H]3CC[C@@H](C2)N3c2ccc(C(=O)C3CC3)cn2)cc1NCC(F)(F)C(F)(F)F with Heat shock protein HSP 90-alpha (Homo sapiens, UniProt P07900), please?
Result: < 0.5 µM

Query: Entry COc1cccc(C(=O)N[C@H]2C[C@H]3CC[C@@H](C2)N3c2ccc(C(=O)NN)cn2)c1C , system Heat shock protein HSP 90-alpha (Homo sapiens, UniProt P07900): what IC50 was measured?
Result: 2 to 10 µM

Query: Form field - read-out: IC50; system: Heat shock protein HSP 90-alpha (Homo sapiens, UniProt P07900); submitted item: CCNC(=O)c1noc(-c2cc(Cl)c(O)cc2O)c1NC(=O)c1cc(OC)c(OC)c(OC)c1
Result: 0.1 to 1 µM

Query: Find the measured IC50: item CON(C)C(=O)c1ccc(N2[C@@H]3CC[C@H]2C[C@@H](NC(=O)c2ccc(C(N)=O)c(NCC4CC4)c2)C3)nc1 , target or system Heat shock protein HSP 90-alpha (Homo sapiens, UniProt P07900).
Result: 1 to 2 µM

Query: Heat shock protein HSP 90-alpha (Homo sapiens, UniProt P07900) / IC50 / COCCn1nnnc1-c1cc(-c2cc(C(C)C)ccc2OC)c(O)cc1O : value?
Result: 1 to 10 µM
